Attribution: patent US10689343B2

- TARGET OR TEST SYSTEM: Recombinant TDO (Homo sapiens, UniProt P48775)
- Construct: Recombinant TDO (Seegers, N., et al.) and all other assay components were diluted in TDO reaction buffer
- Sequence (P48775 whole entry): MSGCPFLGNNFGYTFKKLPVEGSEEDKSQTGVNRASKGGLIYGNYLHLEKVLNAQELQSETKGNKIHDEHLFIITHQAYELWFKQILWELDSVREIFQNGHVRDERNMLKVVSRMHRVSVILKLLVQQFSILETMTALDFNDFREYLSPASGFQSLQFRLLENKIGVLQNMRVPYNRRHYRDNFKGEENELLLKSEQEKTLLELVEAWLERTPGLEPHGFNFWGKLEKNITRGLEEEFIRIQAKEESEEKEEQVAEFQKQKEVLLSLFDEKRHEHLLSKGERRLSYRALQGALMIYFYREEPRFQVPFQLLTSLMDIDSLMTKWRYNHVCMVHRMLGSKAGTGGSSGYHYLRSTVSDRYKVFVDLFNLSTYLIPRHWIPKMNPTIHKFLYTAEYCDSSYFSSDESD
- PROCEDURE TEXT: Biochemical assay for TDO (NFK GreenScreen)
- EXPERIMENTAL CONTEXT: 50 nM TDO, 200 μM L-tryptophan
pIC50: −log10 of the molar value.
Below, each entry is listed with its recorded pIC50.

O=C(CC1COC1)Nc1ccc(-c2c[nH]c3cc(F)ccc23)cc1 | > 6.00
CCN(CC)CC(C)NC(=O)c1ccc(-c2c[nH]c3cc(F)ccc23)cc1OC (centres unmarked) | > 6.00
COCC(C)C(=O)Nc1ccc(-c2c[nH]c3cc(F)ccc23)cc1 (centres unmarked) | > 6.00
CC(C)NC(=S)N1CCC[C@@H](CNC(=O)c2ccc(-c3c[nH]c4cc(F)ccc34)cc2)C1 | 5.30 to 6.00
O=C(CC1(O)CCCC1)Nc1ccc(-c2c[nH]c3cc(F)ccc23)cc1 | > 6.00
O=C(NC1CCCNC1)c1ccc(-c2c[nH]c3cc(F)ccc23)cc1 (centres unmarked) | > 6.00

Task: Respond only with pIC50 recorded for "C[C@H](NC(=O)c1ccc(-c2c[nH]c3cc(F)ccc23)cc1)c1nnc2ccccn12"
Output: 5.30 to 6.00

Task: Respond only with pIC50 recorded for "C[C@H](NC(=O)c1ccc(-c2c[nH]c3cc(F)ccc23)cc1)C(C)(C)C"
Output: 5.30 to 6.00

###

- TARGET OR TEST SYSTEM: CYP3A4 (Homo sapiens)
- PROCEDURE TEXT: P450-Glo CYP3A4 luciferin isopropylacetal (Luc-IP) assay
Below, each entry is listed with its recorded IC50.

N[C@H]1CCC[C@@H](C(=O)Nc2ccc(-c3c[nH]c4cc(F)ccc34)cc2)C1 [Example 103] | > 10 µM

Task: Respond only with IC50 recorded for O=C(N[C@@H]1CN2CCC1CC2)c1ccc(-c2c[nH]c3cc(F)ccc23)cc1 [Example 20]
Output: > 10 µM

Task: Respond only with IC50 recorded for CC(C)[C@H](C)NC(=O)c1ccc(-c2c[nH]c3cc(F)ccc23)cc1 [Example 49]
Output: > 10 µM

Task: Respond only with IC50 recorded for O=C(Nc1ccc(-c2c[nH]c3cc(F)ccc23)cc1)C1[C@H]2COC[C@@H]12 (some centres unmarked) [Example 100]
Output: > 10 µM

###

- TARGET OR TEST SYSTEM: CYP3A4 (Homo sapiens, UniProt P08684)
- Sequence (P08684 whole entry): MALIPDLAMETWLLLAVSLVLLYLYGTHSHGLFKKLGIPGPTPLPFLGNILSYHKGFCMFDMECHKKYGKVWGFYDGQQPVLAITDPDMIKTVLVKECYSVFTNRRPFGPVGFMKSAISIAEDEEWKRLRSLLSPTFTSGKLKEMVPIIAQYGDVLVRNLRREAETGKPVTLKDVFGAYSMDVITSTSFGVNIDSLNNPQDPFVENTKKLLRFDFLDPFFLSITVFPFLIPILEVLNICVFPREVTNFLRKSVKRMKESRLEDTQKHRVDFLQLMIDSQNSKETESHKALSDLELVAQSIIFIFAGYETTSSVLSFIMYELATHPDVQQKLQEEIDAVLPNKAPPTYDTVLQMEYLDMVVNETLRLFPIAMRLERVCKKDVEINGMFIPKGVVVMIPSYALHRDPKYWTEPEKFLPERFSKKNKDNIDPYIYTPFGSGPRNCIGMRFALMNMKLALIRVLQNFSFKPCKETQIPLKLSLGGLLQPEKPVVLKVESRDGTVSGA
- PROCEDURE TEXT: P450-Glo CYP3A4 luciferin isopropylacetal (Luc-IP) assay
Below, each entry is listed with its recorded IC50.

A selection of reference data follows.
CN1CCN(CC(=O)Nc2ccc(-c3c[nH]c4cc(F)ccc34)cc2)CC1 | > 10 µM
O=C(Nc1ccc(-c2c[nH]c3cc(F)ccc23)cc1)C1CC12CCNCC2 (stereo not drawn) | > 10 µM
CC(C)(O)CNC(=O)c1ccc(-c2c[nH]c3cc(F)ccc23)cc1 | > 10 µM
CSCC(=O)Nc1ccc(-c2c[nH]c3cc(F)ccc23)cc1 | > 10 µM

Task: Respond only with IC50 recorded for O=C(Nc1ccc(-c2c[nH]c3cc(F)ccc23)cc1)C1C2CNCC21 (stereo not drawn)
Output: 5 to 10 µM

Task: Respond only with IC50 recorded for "C[C@H]1CNCC[C@H]1C(=O)Nc1ccc(-c2c[nH]c3cc(F)ccc23)cc1"
Output: 5 to 10 µM

Task: Respond only with IC50 recorded for CS(=O)(=O)N1CCCC(NC(=O)c2ccc(-c3c[nH]c4cc(F)ccc34)cc2)C1 (stereo not drawn)
Output: > 10 µM

Task: Respond only with IC50 recorded for "COc1cc(-c2c[nH]c3cc(F)ccc23)ccc1C(=O)NCCCN(C)C"
Output: > 10 µM

###

Below, each entry is listed with its recorded pIC50.
- TARGET OR TEST SYSTEM: CYP3A4 (Homo sapiens)
- PROCEDURE TEXT: P450-Glo CYP3A4 luciferin isopropylacetal (Luc-IP) assay
pIC50: −log10 of the molar value.

O=C(N[C@@H](CO)c1ccccc1)c1ccc(-c2c[nH]c3cc(F)ccc23)cc1 | 5.00 to 5.30
O=C(NOC(CO)CO)c1ccc(-c2c[nH]c3cc(F)ccc23)cc1 | 5.00 to 5.30
O=C(NCC1(F)CCNCC1)c1ccc(-c2c[nH]c3cc(F)ccc23)cc1 | < 5.00

Task: Respond only with pIC50 recorded for "C[C@H](CO)NC(=O)c1ccc(-c2c[nH]c3ccc(F)cc23)cc1"
Output: < 5.00

###

- TARGET OR TEST SYSTEM: CYP3A4 (Homo sapiens, UniProt P08684)
- PROCEDURE TEXT: P450-Glo CYP3A4 luciferin isopropylacetal (Luc-IP) assay
pIC50: −log10 of the molar value.
Below, each entry is listed with its recorded pIC50.

A selection of reference data follows.
C[C@H](CO)NC(=O)c1c(F)cc(-c2c[nH]c3cc(F)ccc23)cc1F | < 5.00
CC(C)NC(=S)N1CCC[C@@H](CNC(=O)c2ccc(-c3c[nH]c4cc(F)ccc34)cc2)C1 | < 5.00
O=C(Nc1ccc(-c2c[nH]c3cc(F)ccc23)cc1)C1CCC1(F)F (stereo not shown) | < 5.00

Task: Respond only with pIC50 recorded for "O=C(NCC(F)(F)F)c1ccc(-c2c[nH]c3ccc(F)cc23)cc1"
Output: < 5.00

Task: Respond only with pIC50 recorded for "Cc1cc(C(=O)N[C@H](C)CO)ccc1-c1c[nH]c2cc(F)ccc12"
Output: 5.00 to 5.30

Task: Respond only with pIC50 recorded for "CNC(=O)Nc1ccc(-c2c[nH]c3cc(F)ccc23)cc1"
Output: < 5.00

Task: Respond only with pIC50 recorded for "N[C@@H]1CCC[C@H](C(=O)Nc2ccc(-c3c[nH]c4cc(F)ccc34)cc2)C1"
Output: < 5.00

Task: Respond only with pIC50 recorded for "O=C(NCC(F)(F)F)c1c(F)cc(-c2c[nH]c3cc(F)ccc23)cc1F"
Output: 5.00 to 5.30

Task: Respond only with pIC50 recorded for "O=C(CCc1ccccc1)Nc1ccc(-c2c[nH]c3cc(F)ccc23)cc1"
Output: < 5.00

Task: Respond only with pIC50 recorded for CCN(CC)CC(C)NC(=O)c1ccc(-c2c[nH]c3cc(F)ccc23)cc1OC (stereo not shown)
Output: < 5.00

Task: Respond only with pIC50 recorded for "C[C@@H](CO)NC(=O)c1ccc(-c2c[nH]c3cc(F)ccc23)cc1"
Output: < 5.00

Task: Respond only with pIC50 recorded for "CC(C)(O)CC(=O)Nc1ccc(-c2c[nH]c3cc(F)ccc23)cc1"
Output: < 5.00

Task: Respond only with pIC50 recorded for "O=C(N[C@H]1CCCNC1)c1c(F)cc(-c2c[nH]c3cc(F)ccc23)cc1F"
Output: < 5.00

Task: Respond only with pIC50 recorded for "C[C@H](O)CC(=O)Nc1ccc(-c2c[nH]c3cc(F)ccc23)cc1"
Output: < 5.00

Task: Respond only with pIC50 recorded for "CN(C)C(=O)Nc1ccc(-c2c[nH]c3cc(F)ccc23)cc1"
Output: < 5.00

Task: Respond only with pIC50 recorded for CN1CCCC(NC(=O)c2ccc(-c3c[nH]c4cc(F)ccc34)cc2)C1 (stereo not shown)
Output: < 5.00

###

- TARGET OR TEST SYSTEM: CYP3A4 (Homo sapiens, UniProt P08684)
- PROCEDURE TEXT: P450-Glo CYP3A4 luciferin isopropylacetal (Luc-IP) assay
pIC50: −log10 of the molar value.
READOUT KIND: pIC50

CN(C)CCCNC(=O)c1ccc(-c2c[nH]c3cc(F)ccc23)cc1F | 5.00 to 5.30
O=C(CC1CC1)Nc1ccc(-c2c[nH]c3cc(F)ccc23)cc1 | < 5.00

Task: Name the value of pIC50 reported for "O=C(NCCN1CCCC1)c1ccc(-c2c[nH]c3cc(F)ccc23)cc1Cl" when tested on CYP3A4 (Homo sapiens, UniProt P08684).
Output: 5.00 to 5.30
